Test system: SF-295 CNS
protocol-details: NCI-60 one-dose screen, 48 h (100 = growth as untreated, 0 = no growth, -100 = all killed)
condition-details: 10 µM unless noted
About 83,000 compounds went through this panel and 20% of them were active in at least one assay; those are over-represented in the sample as a whole.
measured-attribute: growth (%)
Your answer should be a plain number; it is taken to be in %.

Please review the following examples before continuing.
CSc1nnc(-c2cc3c([nH]c4ccccc43)c(-c3cccc(O)c3)n2)n1-c1ccc(C)cc1: 15
COc1cc(NS(=O)(=O)C(C)C)cc(-c2cc(-c3ccc(N4CCNCC4)cc3)cnc2N)c1: 91.7
CCn1cc(C(=O)NN=C2CCCC2)c(=O)c2ccc(C)nc21: 92.8

stdin: Give growth for Nc1nc(N)c2c(n1)NC(c1ccc(Cl)cc1)CC(c1cccc(Nc3ccncc3)c1)=N2 (stereo not drawn)
stdout: 64.5

stdin: Provide growth value for the following compound: CCN1C(=O)N(c2ccccc2)C2NC(=S)N(/N=C/C=C/c3ccccc3)C21 (stereo not drawn)
stdout: 2.91

stdin: Note growth for the compound shown: O=C1N=c2ccccc2=C1c1sc(=S)n(C2CC(=O)N(c3ccc(Cl)cc3)C2=O)c1O (stereo not drawn)
stdout: 104

* * *

Tested on: M14 melanoma
protocol-details: NCI-60 one-dose screen, 48 h (100 = growth as untreated, 0 = no growth, -100 = all killed)
condition-details: 10 µM unless noted
Compounds without any hit were thinned out: in the full panel of roughly 83,000, 20% have a hit.
Below, each of the compounds is paired with its reported growth value.
Give your result in % as a bare value.

Use the examples below as a reference point.
Cn1cc(-c2csc(-c3c[nH]c4ccc(F)cc34)n2)c2cnccc21: -87
CC(C)=CCc1cc(O)c(O)c2oc3cc(O)cc(O)c3c(=O)c12: 63.9

Please turn your attention to the following entry.
stdin: Give the value of growth reported for the following: `O=C1/C(=C/c2ccc(-c3cccc(C(F)(F)F)c3)o2)SC(=S)N1CCc1ccc(O)cc1`
stdout: 57.5

* * *

Listed below: growth values for each entry.
Tested on: A549/ATCC NSCLC
protocol-details: NCI-60 one-dose screen, 48 h (100 = growth as untreated, 0 = no growth, -100 = all killed)
condition-details: 10 µM unless noted
Compounds without any hit were thinned out: in the full panel of roughly 83,000, 20% have a hit.
Give the quantity in %, number only.

Known growth results, listed for orientation:
O=c1oc2c(Br)cc(Br)cc2cc1-c1cc(-c2ccc(-c3cc(-c4cc5cc(Br)cc(Br)c5oc4=O)nc(-c4cc5cc(Br)cc(Br)c5oc4=O)c3)cc2)cc(-c2cc3cc(Br)cc(Br)c3oc2=O)n1: 105
O=C(N=Nc1c(O)[nH]c2ccccc12)Nc1ccc(Br)cc1: 98.9
COc1ccc(C2Nc3nc(SC)nc(N)c3N=C3c4ccccc4CCC32)cc1 (centres undefined): 102
Nc1nc(CSc2n[nH]c(N)n2)nc(Nc2ccccc2)n1: 102
Nc1nc(Nc2ccc(F)cc2)nn1C(=O)c1cc(Cl)ccc1Cl: 75.2

stdin: Specify measured growth for `COc1ccc(-c2cc(-c3cccnc3)nc3sc4c(Cl)nnnc4c23)cc1OC` .
stdout: 93.6

* * *

Tested on: LOX IMVI melanoma
protocol-details: NCI-60 one-dose screen, 48 h (100 = growth as untreated, 0 = no growth, -100 = all killed)
condition-details: 10 µM unless noted
This is part of a sample that, as a whole, favours compounds with a hit. Of some 83,000 tested, about 20% had one in any assay.
measured-attribute: growth (%)
Expressed in %, but write only the number.

CN1CCN(c2ccc(/C=C/C(=O)c3ccc(O)cc3)cc2)CC1: 95.4
CCCCCCCCCCCCCCCCCCn1cc(COc2ccc(C=O)cc2)nn1: 85.5
CCOC(=O)CC1CSC(c2cccc(Cl)c2)=N1 (stereo unspecified): 95.7
O=C(CN1C(=O)S/C(=C\C(Cl)=C\c2ccccc2)C1=O)NCCCn1ccnc1: -52.3
O=C(NCc1cccnc1)/C(=C\c1ccc(Br)cc1)S(=O)(=O)c1ccccc1: -89.5

Shifting focus to the compound that follows.
stdin: Read off the recorded growth for `CC(=O)OC[C@]12CCC(C)(C)C=C1[C@H]1CC[C@@H]3[C@@]4(C)CCCNC(C)(C)[C@@H]4CC[C@@]3(C)[C@]1(C)CC2`
stdout: 72.5
